Value source: ChEMBL document CHEMBL4382283

Target Under Test: Free fatty acid receptor 1 (Homo sapiens, UniProt O14842)
Sequence (O14842 whole entry): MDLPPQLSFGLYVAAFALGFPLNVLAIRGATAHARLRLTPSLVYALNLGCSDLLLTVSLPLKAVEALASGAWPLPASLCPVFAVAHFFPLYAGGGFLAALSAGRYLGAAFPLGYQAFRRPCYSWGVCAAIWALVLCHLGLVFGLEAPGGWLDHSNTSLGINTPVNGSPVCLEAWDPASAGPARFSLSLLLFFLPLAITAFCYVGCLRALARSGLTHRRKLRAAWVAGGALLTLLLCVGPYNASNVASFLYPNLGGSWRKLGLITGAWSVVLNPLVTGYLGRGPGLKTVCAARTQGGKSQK
Measurement Protocol: Agonist activity at GPR40 in human islets assessed as induction of glucose-stimulated insulin secretion after 1 hr by HTRF assay
Endpoint Name: EC50 (nM)

Compound Structure	Endpoint Name	Measurement Unit	Numeric Value
COc1ccc(F)c([C@H]2CC[C@H](COc3cccc([C@H](C4CC4)[C@@](C)(F)C(=O)O)c3)CC2)c1	EC50	nM	3.7
COc1ccc(F)c([C@H]2CC[C@H](COc3cccc([C@@H](CC(=O)O)C4CC4)c3)CC2)c1	EC50	nM	1370

---

Measurement Protocol: Drug metabolism in human hepatocytes at 10 uM after 2 hr by LC-MS analysis
Format: ADME, cell-based, Hepatocyte

Compound Structure	Drug metabolism / %
COc1ccc(F)c([C@H]2CC[C@H](COc3cccc([C@H](C4CC4)[C@H](C)C(=O)O)c3)CC2)c1	5
COc1ccc(F)c([C@H]2CC[C@H](COc3cccc([C@H](C4CC4)[C@@H](F)C(=O)O)c3)CC2)c1	7
COc1ccc(F)c([C@H]2CC[C@H](COc3cccc([C@H](C4CC4)[C@@](C)(F)C(=O)O)c3)CC2)c1	1
COc1ccc(F)c([C@H]2CC[C@H](COc3cccc([C@@H](CC(=O)O)C4CC4)c3)CC2)c1	4

---

Measurement Protocol: Metabolic stability in human hepatocytes assessed as parent compound remaining at 10 uM after 2 hr by LC-MS analysis
Type: ADME, cell-based, Hepatocyte
# key: entry, value: Stability
Endpoint Name: Stability (%)

Compound Structure	Endpoint Name	Numeric Value
COc1ccc(F)c([C@H]2CC[C@H](COc3cccc([C@H](C4CC4)[C@@](C)(F)C(=O)O)c3)CC2)c1	Stability	73
COc1ccc(F)c([C@H]2CC[C@H](COc3cccc([C@H](C4CC4)[C@H](C)C(=O)O)c3)CC2)c1	Stability	45
COc1ccc(F)c([C@H]2CC[C@H](COc3cccc([C@H](C4CC4)[C@@H](F)C(=O)O)c3)CC2)c1	Stability	63
COc1ccc(F)c([C@H]2CC[C@H](COc3cccc([C@@H](CC(=O)O)C4CC4)c3)CC2)c1	Stability	56

---

# key: entry, value: EC50
Target Under Test: Free fatty acid receptor 1 (Rattus norvegicus)
Sequence (Q8K3T4 whole entry): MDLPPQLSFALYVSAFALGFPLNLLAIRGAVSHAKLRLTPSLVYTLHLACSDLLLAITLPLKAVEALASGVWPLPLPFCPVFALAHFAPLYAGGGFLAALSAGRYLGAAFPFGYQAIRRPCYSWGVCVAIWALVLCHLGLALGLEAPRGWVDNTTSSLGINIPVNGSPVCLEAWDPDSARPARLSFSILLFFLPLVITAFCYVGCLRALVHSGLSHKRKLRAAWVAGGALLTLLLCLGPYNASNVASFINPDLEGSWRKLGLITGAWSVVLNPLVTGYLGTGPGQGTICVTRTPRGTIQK
Measurement Protocol: Agonist activity at rat GPR40 expressed in HEK293 cells assessed as induction of intracellular calcium mobilization by Fluo-8 dye based FLIPR assay

Compound Structure	EC50, nM
COc1ccc(F)c([C@H]2CC[C@H](COc3cccc([C@H](C4CC4)[C@H](F)C(=O)O)c3)CC2)c1	163
COc1ccc(F)c([C@H]2CC[C@H](COc3cccc([C@H](C4CC4)C(C)(C)C(=O)O)c3)CC2)c1	0.31
Cc1cc(OCCCS(C)(=O)=O)cc(C)c1-c1cccc(COc2ccc3c(c2)OC[C@H]3CC(=O)O)c1	39
COc1ccc(F)c([C@H]2CC[C@H](COc3cccc([C@H](C4CC4)[C@@H](C)C(=O)O)c3)CC2)c1	4.9

---

# key: entry, value: clearance
Measurement Protocol: Clearance in Sprague-Dawley rat at 10 mg/kg, po or 2 mg/kg, iv by LC-MS/MS analysis
Format: ADME, organism-based
Test Parameters: in vivo

Compound Structure	clearance
COc1ccc(F)c([C@H]2CC[C@H](COc3cccc([C@H](C4CC4)[C@@](C)(F)C(=O)O)c3)CC2)c1	17 mL/min/kg
COc1ccc(F)c([C@H]2CC[C@H](COc3cccc([C@H](C4CC4)[C@H](C)C(=O)O)c3)CC2)c1	8.1 mL/min/kg
COc1ccc(F)c([C@H]2CC[C@H](COc3cccc([C@@H](CC(=O)O)C4CC4)c3)CC2)c1	0.4 mL/min/kg
COc1ccc(F)c([C@H]2CC[C@H](COc3cccc([C@H](C4CC4)[C@@H](F)C(=O)O)c3)CC2)c1	2.7 mL/min/kg
